Hello, the source for this data is ChEMBL document CHEMBL1828519, in case you need it.

assay-overview: Drug uptake in Sprague-Dawley rat brain at 10 mg/kg, po after 1 hr
Assay type: ADME, organism-based
Design: dose 10 mg/kg, route oral
condition: read-out: Drug uptake
test-readout: concentration at 1 h (ng/g)
Use ng/g as the unit, but write only the number.

c1cnc(Nc2nc3c(s2)CCCc2[nH]ncc2-3)nc1    3.1
c1ccc(Nc2nc3c(s2)CCCc2[nH]ncc2-3)nc1    200
c1ccc(Nc2nc3c(s2)CCc2[nH]ncc2-3)nc1    517

Record c1ccc(Nc2nc(-c3cn[nH]c3)cs2)nc1 . Reported concentration at 1 h: 744

###

Below: a set of entries, each annotated with reported solubility kinetic.
assay-overview: Kinetic solubility of the compound at pH 1.5 at room temperature
Format: physicochemical
condition: buffer, read-out: Kinetic_solubility
Use µM as the unit, but write only the number.

// known answers, use as guide
c1cnc(Nc2nc3c(s2)CCCc2[nH]ncc2-3)nc1    100
c1ccc(Nc2nc(-c3cn[nH]c3)cs2)nc1    220
c1ccc(Nc2nc3c(s2)CCc2[nH]ncc2-3)nc1    220

Record c1ccc(Nc2nc3c(s2)CCCc2[nH]ncc2-3)nc1 . Reported solubility kinetic: 240

###

assay-overview: Kinetic solubility of the compound at pH 7.4 at room temperature
Format: physicochemical
condition: buffer, read-out: Kinetic_solubility
Below: a set of entries, each annotated with reported solubility kinetic.
Use µM as the unit, but write only the number.

// known answers, use as guide
c1ccc(Nc2nc(-c3cn[nH]c3)cs2)nc1    120
Cc1cc(C)nc(Nc2nc3c(s2)CCc2[nH]ncc2-3)c1    0.1
Clc1cccc(Nc2nc3c(s2)CCCc2[nH]ncc2-3)n1    38
c1cnc(Nc2nc3c(s2)CCCc2[nH]ncc2-3)cn1    78
Cc1cc(Nc2nc3c(s2)CCCc2[nH]ncc2-3)[nH]n1    10
c1ccc(Nc2nc3c(s2)CCCc2[nH]ncc2-3)nc1    1.2
COCCOc1cccc(Nc2nc3c(s2)CCCc2n[nH]cc2-3)n1    0.1
Cc1cccnc1Nc1nc2c(s1)CCCc1[nH]ncc1-2    0.2

Record c1cc(Nc2nc3c(s2)CCCc2n[nH]cc2-3)ncn1 . Reported solubility kinetic: 1.8

Record OCc1cccc(Nc2nc3c(s2)CCCc2n[nH]cc2-3)n1 . Reported solubility kinetic: 30

###

Below: a set of entries, each annotated with reported Papp.
assay-overview: Apparent permeability of the compound by PAMPA assay
Format: ADME
Use ×10⁻⁶ cm/s as the unit, but write only the number.

OCc1cccc(Nc2nc3c(s2)CCCc2n[nH]cc2-3)n1    38.8
c1cnc(Nc2nc3c(s2)CCc2[nH]ncc2-3)nc1    3.4

Let's switch to this molecule now.
Record Clc1cccc(Nc2nc3c(s2)CCCc2[nH]ncc2-3)n1 . Reported Papp: 15.4

###

experimental-target: Metabotropic glutamate receptor 1 (Homo sapiens)
Sequence (Q13255 whole entry): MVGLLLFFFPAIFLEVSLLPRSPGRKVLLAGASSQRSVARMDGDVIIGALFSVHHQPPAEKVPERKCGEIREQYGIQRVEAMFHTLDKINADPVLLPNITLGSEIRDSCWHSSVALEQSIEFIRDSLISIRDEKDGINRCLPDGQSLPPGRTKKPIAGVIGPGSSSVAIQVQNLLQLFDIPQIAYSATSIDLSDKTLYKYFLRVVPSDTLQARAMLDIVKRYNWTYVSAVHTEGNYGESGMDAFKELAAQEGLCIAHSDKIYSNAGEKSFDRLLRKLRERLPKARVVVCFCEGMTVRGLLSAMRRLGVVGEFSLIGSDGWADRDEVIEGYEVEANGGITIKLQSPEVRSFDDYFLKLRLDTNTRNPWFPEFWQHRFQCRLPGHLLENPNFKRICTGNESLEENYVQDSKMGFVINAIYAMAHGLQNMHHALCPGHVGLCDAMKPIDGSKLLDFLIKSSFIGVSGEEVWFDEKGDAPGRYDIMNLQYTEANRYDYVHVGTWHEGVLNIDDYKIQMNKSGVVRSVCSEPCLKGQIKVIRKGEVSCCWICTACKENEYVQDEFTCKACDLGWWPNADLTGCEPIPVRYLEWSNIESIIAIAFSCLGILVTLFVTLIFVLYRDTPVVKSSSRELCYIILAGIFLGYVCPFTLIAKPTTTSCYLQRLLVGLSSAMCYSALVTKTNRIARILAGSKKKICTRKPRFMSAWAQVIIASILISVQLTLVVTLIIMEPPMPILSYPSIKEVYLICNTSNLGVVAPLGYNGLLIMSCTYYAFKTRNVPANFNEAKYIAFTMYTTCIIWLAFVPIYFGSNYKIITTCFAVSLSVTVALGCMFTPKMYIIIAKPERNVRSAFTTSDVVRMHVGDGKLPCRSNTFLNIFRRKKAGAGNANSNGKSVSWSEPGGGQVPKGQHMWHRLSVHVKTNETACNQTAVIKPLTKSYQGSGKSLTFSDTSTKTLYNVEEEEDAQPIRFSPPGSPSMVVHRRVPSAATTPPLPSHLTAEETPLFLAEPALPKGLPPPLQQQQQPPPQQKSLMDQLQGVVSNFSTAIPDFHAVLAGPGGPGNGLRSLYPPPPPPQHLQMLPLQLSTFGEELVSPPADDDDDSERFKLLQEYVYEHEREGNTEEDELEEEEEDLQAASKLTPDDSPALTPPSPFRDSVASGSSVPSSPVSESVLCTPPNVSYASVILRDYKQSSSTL
assay-overview: Negative allosteric modulation of mGlu1 receptor
pIC50: −log10 of the molar value.
Below: a set of entries, each annotated with reported pIC50.

// known answers, use as guide
c1ccc(Nc2nc3c(s2)CCCc2[nH]ncc2-3)nc1    < 5.00
c1cnc(Nc2nc3c(s2)CCCc2[nH]ncc2-3)nc1    < 5.00

Record c1ccc(Nc2nc3c(s2)CCc2[nH]ncc2-3)nc1 . Reported pIC50: < 5.00
